Tested on: Aspergillus flavus
Assay: Antifungal activity against Aspergillus flavus ATCC 204304 measured after 72 hrs by agar dilution method
Assay type: functional
Settings: ATCC 204304, 72 h
// reported MIC per item
State just the number; it will be interpreted in µM.

Some solved cases for reference:
CC(=O)OC[C@H]1O[C@@H](n2cc(COc3ccc4c(c3)OC(N)=C(C#N)C4c3ccc(C(C)C)cc3)nn2)[C@H](OC(C)=O)[C@@H](OC(C)=O)[C@@H]1OC(C)=O (stereo partly specified) : 50
CC(=O)OC[C@H]1O[C@@H](n2cc(COc3ccc4c(c3)OC(N)=C(C#N)C4c3cccc(Cl)c3)nn2)[C@H](OC(C)=O)[C@@H](OC(C)=O)[C@@H]1OC(C)=O (stereo partly specified) : 200
COc1cc(OC)cc(C2C(C#N)=C(N)Oc3cc(OCc4cn([C@@H]5O[C@H](COC(C)=O)[C@@H](OC(C)=O)[C@H](OC(C)=O)[C@H]5OC(C)=O)nn4)ccc32)c1 (stereo partly specified) : 50
CC(=O)OC[C@H]1O[C@@H](n2cc(COc3ccc4c(c3)OC(N)=C(C#N)C4c3ccc(N(C)C)cc3)nn2)[C@H](OC(C)=O)[C@@H](OC(C)=O)[C@@H]1OC(C)=O (stereo partly specified) : 12.5
Clc1ccc(COC(Cn2ccnc2)c2ccc(Cl)cc2Cl)c(Cl)c1 (stereo unspecified) [MICONAZOLE] : 1.56

Would you kindly look at the next entry?
Recorded result, CC(=O)OC[C@H]1O[C@@H](n2cc(COc3ccc4c(c3)OC(N)=C(C#N)C4c3cccc(Cl)c3Cl)nn2)[C@H](OC(C)=O)[C@@H](OC(C)=O)[C@@H]1OC(C)=O (stereo partly specified) , MIC: 200

###

Test system: Klebsiella pneumoniae
Assay: Antibacterial activity against measured after Klebsiella pneumoniae ATCC 4352 measured after 18 to 20 hrs by microbroth dilution method
Format: functional
ASSAY_METRIC: MIC (µM)
State just the number; it will be interpreted in µM.

COc1ccc(C2C(C#N)=C(N)Oc3cc(OCc4cn([C@@H]5O[C@H](COC(C)=O)[C@@H](OC(C)=O)[C@H](OC(C)=O)[C@H]5OC(C)=O)nn4)ccc32)cc1OC (stereo partly drawn) : 25
CC(=O)OC[C@H]1O[C@@H](n2cc(COc3ccc4c(c3)OC(N)=C(C#N)C4c3ccc(C(C)C)cc3)nn2)[C@H](OC(C)=O)[C@@H](OC(C)=O)[C@@H]1OC(C)=O (stereo partly drawn) : 1.56

Would you kindly look at the next entry?
Recorded result, CC(=O)OC[C@H]1O[C@@H](n2cc(COc3ccc4c(c3)OC(N)=C(C#N)C4c3ccc([N+](=O)[O-])cc3)nn2)[C@H](OC(C)=O)[C@@H](OC(C)=O)[C@@H]1OC(C)=O (stereo partly drawn) , MIC: 12.5

###

Tested on: Klebsiella pneumoniae
Experiment: Antibacterial activity against measured after Klebsiella pneumoniae ATCC 4352 measured after 18 to 20 hrs by microbroth dilution method
Assay type: functional
Lab note - cut at 100 µM for MIC: Yes if strictly below, No if not.

CC(=O)OC[C@H]1O[C@@H](n2cc(COc3ccc4c(c3)OC(N)=C(C#N)C4c3ccc(Cl)cc3Cl)nn2)[C@H](OC(C)=O)[C@@H](OC(C)=O)[C@@H]1OC(C)=O (stereo not given in full) : No
CC(=O)OC[C@H]1O[C@@H](n2cc(COc3ccc4c(c3)OC(N)=C(C#N)C4c3ccccc3[N+](=O)[O-])nn2)[C@H](OC(C)=O)[C@@H](OC(C)=O)[C@@H]1OC(C)=O (stereo not given in full) : No
COc1ccc(C2C(C#N)=C(N)Oc3cc(OCc4cn([C@@H]5O[C@H](COC(C)=O)[C@@H](OC(C)=O)[C@H](OC(C)=O)[C@H]5OC(C)=O)nn4)ccc32)c(OC)c1 (stereo not given in full) : Yes

Identify whether the compound COc1cccc(C2C(C#N)=C(N)Oc3cc(OCc4cn([C@@H]5O[C@H](COC(C)=O)[C@@H](OC(C)=O)[C@H](OC(C)=O)[C@H]5OC(C)=O)nn4)ccc32)c1OC (stereo not given in full) records MIC below 100 µM.
Yes
